Parameter: Avidity (relative to control HEK293T cells = 1). Scope: all listed entries.
assaySystem: T1, human IGF-I receptor (human, UniProt P08069 31-1367)
T1 construct: no signal peptide is stated in words; also used here as the target for the proliferation assay on human myoblast cells (endogenous receptor); also called IGF-I receptor of human; NP_000866
T1 sequence (P08069 31-1367 limits assumed): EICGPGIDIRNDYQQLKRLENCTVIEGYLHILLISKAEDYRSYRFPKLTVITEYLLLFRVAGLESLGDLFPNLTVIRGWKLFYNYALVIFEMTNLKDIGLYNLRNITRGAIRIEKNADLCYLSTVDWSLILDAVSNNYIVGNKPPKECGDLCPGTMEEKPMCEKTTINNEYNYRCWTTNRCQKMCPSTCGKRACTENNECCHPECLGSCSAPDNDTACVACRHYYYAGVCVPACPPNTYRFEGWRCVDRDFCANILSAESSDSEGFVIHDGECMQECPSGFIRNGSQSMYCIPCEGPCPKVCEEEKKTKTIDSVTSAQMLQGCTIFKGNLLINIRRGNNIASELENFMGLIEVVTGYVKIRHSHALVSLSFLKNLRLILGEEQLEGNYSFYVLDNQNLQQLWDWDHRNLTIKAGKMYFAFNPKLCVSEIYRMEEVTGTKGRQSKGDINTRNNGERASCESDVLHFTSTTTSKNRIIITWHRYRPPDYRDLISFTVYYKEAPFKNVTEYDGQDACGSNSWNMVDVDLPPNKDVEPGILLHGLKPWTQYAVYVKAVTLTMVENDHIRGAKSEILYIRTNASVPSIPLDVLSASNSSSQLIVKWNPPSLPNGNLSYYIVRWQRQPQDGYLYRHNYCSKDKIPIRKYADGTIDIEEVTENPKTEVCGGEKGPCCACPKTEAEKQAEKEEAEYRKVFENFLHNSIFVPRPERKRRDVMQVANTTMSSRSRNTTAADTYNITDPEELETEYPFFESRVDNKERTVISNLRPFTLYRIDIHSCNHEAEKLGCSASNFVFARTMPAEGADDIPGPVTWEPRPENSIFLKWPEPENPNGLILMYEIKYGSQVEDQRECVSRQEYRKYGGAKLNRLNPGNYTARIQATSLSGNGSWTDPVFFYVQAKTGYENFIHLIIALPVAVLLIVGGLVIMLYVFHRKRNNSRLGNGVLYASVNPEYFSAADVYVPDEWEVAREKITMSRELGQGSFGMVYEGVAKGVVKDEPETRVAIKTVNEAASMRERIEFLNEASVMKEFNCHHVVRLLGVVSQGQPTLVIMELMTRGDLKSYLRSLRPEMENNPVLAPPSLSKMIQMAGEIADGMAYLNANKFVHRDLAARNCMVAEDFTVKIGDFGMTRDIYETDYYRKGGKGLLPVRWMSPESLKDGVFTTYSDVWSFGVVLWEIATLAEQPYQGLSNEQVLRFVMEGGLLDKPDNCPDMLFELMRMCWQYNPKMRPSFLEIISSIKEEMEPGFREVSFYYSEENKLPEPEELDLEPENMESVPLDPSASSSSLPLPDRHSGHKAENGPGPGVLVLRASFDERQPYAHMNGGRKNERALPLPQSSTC
protocol: cell-based ELISA, 2 nM antibody on HEK293T cells expressing the receptor, A450-A650

Sample answers from the record:
{"columns": ["binder", "recordedMeasurement"],
 "data": [
  ["anti-IGF-I receptor humanized antibody R11-16C (antibody, human IgG4, V domains shown, also called R11-16C antibody; R11-16VH + R11-16VL-C36A) VH: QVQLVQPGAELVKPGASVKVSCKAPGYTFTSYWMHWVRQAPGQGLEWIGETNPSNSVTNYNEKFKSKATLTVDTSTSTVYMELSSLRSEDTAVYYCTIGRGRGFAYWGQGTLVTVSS VL: DIQMTQSPSSLSASVGDRVTITCRASQNINFWLSWAQQKPGKAPKLLIYKASNLHTGVPSRFSGSGSGTDFTFTISSLQPEDIATYYCLQGQSYPYTFGQGTKLEIK", "3.4 fold of control cells"],
  ["anti-IGF-I receptor humanized antibody R11-16D (antibody, human IgG4, V domains shown, also called R11-16D antibody; R11-16VH + R11-16VL-C36S) VH: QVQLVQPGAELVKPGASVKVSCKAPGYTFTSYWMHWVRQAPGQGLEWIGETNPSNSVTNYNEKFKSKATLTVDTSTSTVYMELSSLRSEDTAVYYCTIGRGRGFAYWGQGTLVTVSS VL: DIQMTQSPSSLSASVGDRVTITCRASQNINFWLSWSQQKPGKAPKLLIYKASNLHTGVPSRFSGSGSGTDFTFTISSLQPEDIATYYCLQGQSYPYTFGQGTKLEIK", "3.4 fold of control cells"],
  ["anti-IGF-I receptor humanized antibody R11-16E (antibody, human IgG4, V domains shown, also called R11-16E antibody; R11-16VH + R11-16VL-C36F) VH: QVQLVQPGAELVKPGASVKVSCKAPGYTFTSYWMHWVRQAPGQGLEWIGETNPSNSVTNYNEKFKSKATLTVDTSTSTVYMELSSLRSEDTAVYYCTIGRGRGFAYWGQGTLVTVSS VL: DIQMTQSPSSLSASVGDRVTITCRASQNINFWLSWFQQKPGKAPKLLIYKASNLHTGVPSRFSGSGSGTDFTFTISSLQPEDIATYYCLQGQSYPYTFGQGTKLEIK", "3.7 fold of control cells"],
  ["anti-IGF-I receptor humanized antibody R11-16B (antibody, human IgG4, V domains shown, Heavy chain constant region: human IgG4 S228P variant; Expressed in Expi293, protein A purified; also called R11-16B antibody; R11-16VH + R11-16VL-C36Y) VH: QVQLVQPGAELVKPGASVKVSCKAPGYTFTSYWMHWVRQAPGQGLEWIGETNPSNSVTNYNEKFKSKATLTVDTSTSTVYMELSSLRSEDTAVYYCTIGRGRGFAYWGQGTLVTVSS VL: DIQMTQSPSSLSASVGDRVTITCRASQNINFWLSWYQQKPGKAPKLLIYKASNLHTGVPSRFSGSGSGTDFTFTISSLQPEDIATYYCLQGQSYPYTFGQGTKLEIK", "3.4 fold of control cells"]
]}

### Prompt Please look up its Avidity (relative to control HEK293T cells = 1): anti-IGF-I receptor humanized antibody R11-16F (antibody, human IgG4, V domains shown, also called R11-16F antibody; R11-16VH + R11-16VL-C36) VH: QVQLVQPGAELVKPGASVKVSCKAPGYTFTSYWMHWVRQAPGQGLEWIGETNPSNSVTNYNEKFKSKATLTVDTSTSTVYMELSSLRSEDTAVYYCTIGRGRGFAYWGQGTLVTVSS VL: DIQMTQSPSSLSASVGDRVTITCRASQNINFWLSWCQQKPGKAPKLLIYKASNLHTGVPSRFSGSGSGTDFTFTISSLQPEDIATYYCLQGQSYPYTFGQGTKLEIK
### Response 3.4 fold of control cells
